The reported measurements were obtained from ChEMBL document CHEMBL4270669.

assay: Thermodynamic solubility of the compound at pH 1.2; type: physicochemical; details: buffer, read-out: Therm_solubility
READOUT LABEL: solubility thermodynamic (mM)
Reply with just the number (in mM).

Problem: What value of measured solubility thermodynamic is listed for Nc1cc(C(F)F)c(-c2nc(N3C4CCC3COC4)nc(N3C4CCC3COC4)n2)cn1 ?
Solution: 20

###

assay: AUC in Sprague-Dawley rat plasma at 10 mg/kg, po administered as single dose after 8 hrs; format: ADME, organism-based; parameters: dose 10 mg/kg, time < 8 hr, route oral
READOUT LABEL: AUC at 8 h (µg·h/mL)
Reply with just the number (in µg·h/mL).

Problem: What value of measured AUC at 8 h is listed for Nc1cc(C(F)F)c(-c2nc(N3C4CCC3COC4)nc(N3C4CCC3COC4)n2)cn1 ?
Solution: 409
